tested on: human lung cancer stem cell PC9-Nanog; assay: In vitro anti-lung cancer stem cell test (CCK-8 cell viability), PC9-Nanog; assay type: cell-based; settings: Homo sapiens, 72 h, read-out: Half effective inhibitory concentration IC50 against tumor cells
Observable: IC50 (µM)
A number alone suffices; assume µM.

Prompt: Need IC50 of "COc1cc2ccnc3c2c(c1OC)NC=C3" , thanks.
Response: 10.1
